Test system: STZ-diabetic mice
Test: Acute hypoglycemic assay in STZ-diabetic mice
Assay type: in vivo
Details: STZ-diabetics mice, 10 mg/kg of bw per os, 3h
Reported Blood glucose concentration values follow for various compounds
Hi! Could you send only the number? It should be in mM, unit omitted.

# Blood glucose concentration measured on STZ-diabetic mice for item Cc1ccccc1-c1cc2ccc(O)cc2oc1=O [Compound 11, 7-Hydroxy-3-(2-methylphenyl)-coumarin] = 15.5

Known value: STZ-diabetic mice Blood glucose concentration of the compound COc1ccc(Cl)cc1C(=O)NCCc1ccc(S(=O)(=O)NC(=O)NC2CCCCC2)cc1 [Glibenclamide, reference compound] equals 6.9

With STZ-diabetic mice as the test system, COc1ccc(-c2cc3c(O)cc(O)cc3oc2=O)cc1 showed Blood glucose concentration of 10.7

Lab entry: STZ-diabetic mice assay, compound Cc1ccc(-c2cc3c(O)cc(O)cc3oc2=O)cc1 , Blood glucose concentration = 14.9

Measured Blood glucose concentration (STZ-diabetic mice), entry O=c1oc2ccc(O)cc2cc1-c1ccc(O)cc1 [Compound 17, 6-Hydroxy-3-(4-hydroxyphenyl)-coumarin] : 22.8

// assay STZ-diabetic mice, entry O=c1oc2cc(O)cc(O)c2cc1-c1ccc(O)cc1 , Blood glucose concentration value = 11.4

----------
System: normal mice
Assay: Acute hypoglycemic assay in normal mice
Type: in vivo
Settings: 10 mg/kg of bw per os, 0h
Procedure: STZ-induced diabetic mice and normal mice were placed in single cages with wire-net floors and deprived of food for 12 h before experimentation but allowed free access to tap water throughout. The compounds (at the doses of 10, 30, and 100 mg/kg of bw) were suspended in 0.05% Tween-80 in saline solution. Glibenclamide (10 mg/kg of bw) was suspended in the same vehicle. […] Blood glucose levels were measured at 0, 1.5, 3, 5, 7, and 9 h after drugs administration.
The compounds listed here are annotated with their Blood glucose concentration.
Numeric answer only, unit mM assumed.

Example entries and their recorded answers appear below.
{"compound": "COc1ccc(-c2cc3c(O)cc(O)cc3oc2=O)cc1", "target": "normal mice", "value.units": "mM", "Blood glucose concentration": 10.8}
{"compound": "COc1ccc(Cl)cc1C(=O)NCCc1ccc(S(=O)(=O)NC(=O)NC2CCCCC2)cc1 [Glibenclamide, reference compound]", "target": "normal mice", "value.units": "mM", "Blood glucose concentration": 9.8}
{"compound": "O=c1oc2ccc(O)cc2cc1-c1ccc(O)cc1 [Compound 17, 6-Hydroxy-3-(4-hydroxyphenyl)-coumarin]", "target": "normal mice", "value.units": "mM", "Blood glucose concentration": 10.6}

Note: attention shifts to another entry.
Reading of Blood glucose concentration for Cc1ccccc1-c1cc2ccc(O)cc2oc1=O [Compound 11, 7-Hydroxy-3-(2-methylphenyl)-coumarin] with normal mice: 10.0

----------
System: STZ-diabetic mice
Experiment: Acute hypoglycemic assay in STZ-diabetic mice
Assay type: in vivo
Details: STZ-diabetics mice, 30 mg/kg of bw per os, 3h
// Blood glucose concentration lookup, one value per entry
All answers are understood in mM, so give the number only.

{"molecule": "O=c1oc2ccc(O)cc2cc1-c1ccc(O)cc1 [Compound 17, 6-Hydroxy-3-(4-hydroxyphenyl)-coumarin]", "Blood glucose concentration, mM": 11.6}
{"molecule": "Cc1ccccc1-c1cc2ccc(O)cc2oc1=O [Compound 11, 7-Hydroxy-3-(2-methylphenyl)-coumarin]", "Blood glucose concentration, mM": 16.5}
{"molecule": "COc1ccc(-c2cc3c(O)cc(O)cc3oc2=O)cc1 [Compound 35]", "Blood glucose concentration, mM": 10.5}

Blood glucose concentration for O=c1oc2cc(O)cc(O)c2cc1-c1ccc(O)cc1 [Compound 28] is 13.5

The molecule listed as Cc1ccc(-c2cc3c(O)cc(O)cc3oc2=O)cc1 [Compound 25] has a reported Blood glucose concentration of 15.8
